Method Notes: Selectivity ratio, IC50 for human MT2 melatonin receptor to IC50 for hamster MT3 melatonin binding site
Experimental Readout: Ratio IC50

Query: Fill in: Ratio IC50 of COC(=O)Nc1ccc2occ(CCNC(=O)C3CC3)c2c1 is ___
Response: 245

Query: Which Ratio IC50 value is on record for COC(=O)c1ccc2occ(CCNC(=O)C3CCCC3)c2c1 ?
Response: 21.6

Query: Reported Ratio IC50, compound CNC(=O)c1ccc2occ(CCNC(=O)C3CC3)c2c1 : ____
Response: > 244

Query: Ratio IC50; subject: COC(=O)Nc1ccc2occ(CCNC(=O)c3ccco3)c2c1
Response: > 178

Query: Value lookup for Ratio IC50; key = CNC(=O)c1ccc2occ(CCNC(C)=O)c2c1
Response: > 83

Query: Reported Ratio IC50, compound C=CCC(=O)NCCc1coc2ccc(NC(=O)OC)cc12 : ____
Response: 51

Query: Record request: Ratio IC50 value, item COC(=O)c1ccc2occ(CCNC(=O)c3ccco3)c2c1
Response: > 188

Query: Look up Ratio IC50 for this compound: CC(=O)NCCc1coc2ccc(C(N)=O)cc12
Response: 12

Query: Which Ratio IC50 is reported for this compound? NC(=O)c1ccc2occ(CCNC(=O)c3ccco3)c2c1
Response: > 149

Query: Requested read-out: Ratio IC50. Entry: COC(=O)Nc1ccc2occ(CCNC(=O)C(C)C)c2c1
Response: 199

Each recorded value in this set is attributed to ChEMBL document CHEMBL1157185.
